- Measured Target: G6PD (Homo sapiens)
- Sequence (P11413 28-515): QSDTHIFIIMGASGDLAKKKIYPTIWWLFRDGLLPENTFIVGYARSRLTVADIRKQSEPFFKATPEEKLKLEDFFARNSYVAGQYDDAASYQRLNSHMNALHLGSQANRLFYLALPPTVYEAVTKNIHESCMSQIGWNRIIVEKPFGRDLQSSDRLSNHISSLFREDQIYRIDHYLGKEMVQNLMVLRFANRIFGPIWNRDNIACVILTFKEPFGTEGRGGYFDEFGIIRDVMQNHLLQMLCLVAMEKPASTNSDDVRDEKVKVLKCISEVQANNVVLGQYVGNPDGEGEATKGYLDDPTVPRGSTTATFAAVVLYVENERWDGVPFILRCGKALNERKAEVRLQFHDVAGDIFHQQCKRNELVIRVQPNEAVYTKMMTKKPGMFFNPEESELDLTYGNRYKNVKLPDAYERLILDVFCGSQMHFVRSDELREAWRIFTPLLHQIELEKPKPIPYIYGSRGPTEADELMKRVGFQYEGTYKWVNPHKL
- Assay Name: G6PD enzymatic activity by diaphorase-coupled assay
- Test Context: Normalized in vitro IC50, Table 1; diaphorase-coupled biochemical assay, normalization to an intraplate control
Property Measured: IC50

- Compound: "O=C1CCCc2nc(Nc3cccc(Br)c3)ncc21 [KG-0167-0A]"
  Reading: "1 to 1000 µM"
- Compound: "COC(=O)c1cccc(Nc2ncc3c(n2)CCCC3=O)c1 [KG-0064-0]"
  Reading: "1 to 1000 µM"
- Compound: "O=C1CCCc2nc(Nc3cccc(Oc4ccccc4)c3)ncc21 [KG-0251-0]"
  Reading: "1 to 1000 µM"
- Compound: "O=C1CCCc2nc(Nc3cccc(C4CC4)c3)ncc21 [KG-0203-0]"
  Reading: "1 to 1000 µM"
- Compound: "O=C1CCCc2nc(Nc3ccc4cc[nH]c4c3)ncc21 [KG-0166-0]"
  Reading: "1 to 1000 µM"
- Compound: "O=C1CCCc2nc(Nc3ccc4[nH]ccc4c3)ncc21 [KG-0168-0]"
  Reading: "1 to 1000 µM"
- Compound: "CC1CCc2nc(Nc3cccc(C#N)c3)ncc2C1=O (stereo not drawn) [KG-0205-0]"
  Reading: "< 1 µM"
- Compound: "O=C1CCCc2nc(Nc3ccc4scnc4c3)ncc21 [KG-0227-0]"
  Reading: "1 to 1000 µM"
- Compound: "O=C1CCCc2nc(Nc3cccc(CO)c3)ncc21 [KG-0240-0]"
  Reading: "1 to 1000 µM"
- Compound: "CN(c1cccc(C#N)c1)c1ncc2c(n1)CCCC2=O [KG-0176]"
  Reading: "> 1000 µM"
- Compound: "Cc1ccc(Nc2ncc3c(n2)CCCC3=O)cc1C [KG-0188-0]"
  Reading: "1 to 1000 µM"
- Compound: "N#Cc1cc(Cl)cc(Nc2ncc3c(n2)CCCC3=O)c1 [KG-0265-0]"
  Reading: "< 1 µM"
